Target: recombinant human Syk (GST-hSyk fusion protein) (Homo sapiens)
Construct: purchased Carna Biosciences 08-176
Test: Homogeneous Time-Resolved Fluorescence (HTRF) assay for the recombinant human Syk enzyme
Type: biochemical
Conditions: IC50 class; 10-dose titration, 25 μM ATP; read-out: rhSYK Activity
measured metric: IC50

Cc1cc(Nc2nccc(C(F)(F)F)n2)cc(-c2cnn(C[C@H](O)CO)c2)c1 [Example 3.42]; ≤ 100 nM

Now consider the entry below.
Request: IC50, test system recombinant human Syk (GST-hSyk fusion protein) (Homo sapiens), entry Cc1cc(Nc2nccc(C(F)(F)F)n2)cc(-c2cnn(CC3OC(=O)NC3C(C)C)c2)c1 (single isomer, unassigned) [Example 23.5]
≤ 100 nM
